Consider the following MIC values measured on Staphylococcus aureus ATCC 25923.
assay-readout: MIC (mM)

Previously resolved entries follow.
>  <compound>
CN1C(=O)CC2(C1=O)C(c1cccs1)CN(C)C21c2ccccc2-c2nc3ccccc3nc21 (stereo not shown)

>  <readout-units>
mM

>  <MIC>
33.3

$$$$
>  <compound>
COc1ccccc1C1CN(C)C2(c3ccccc3-c3nc4ccccc4nc32)C12CC(=O)N(C)C2=O (stereo not shown)

>  <readout-units>
mM

>  <MIC>
31.7

$$$$
>  <compound>
CN1C(=O)CC2(C1=O)C(c1ccc(Cl)cc1)CN(C)C21c2ccccc2-c2nc3ccccc3nc21 (stereo not shown)

>  <readout-units>
mM

>  <MIC>
15.7

$$$$
>  <compound>
COc1ccc(C2CN(C)C3(c4ccccc4-c4nc5ccccc5nc43)C23CC(=O)N(C)C3=O)cc1OC (stereo not shown)

>  <readout-units>
mM

>  <MIC>
14.9

$$$$
>  <compound>
Cc1ccc(C2CN(C)C3(c4ccccc4-c4nc5ccccc5nc43)C23CC(=O)N(C)C3=O)cc1 (stereo not shown)

>  <readout-units>
mM

>  <MIC>
65.6

$$$$

P: CN1C(=O)CC2(C1=O)C(c1ccc(F)cc1)CN(C)C21c2ccccc2-c2nc3ccccc3nc21 (stereo not shown)
Q: CN1C(=O)CC2(C1=O)C(c1cc(Br)c(O)c(Br)c1)CN(C)C21c2ccccc2-c2nc3ccccc3nc21 (stereo not shown)
// query # returns the entry with the larger MIC; inputs P and Q Choose, then provide that item's label.
// result Q
(Q: 24.5 mM, P: 16.2 mM)
